# Subject of test: NHE3 (Homo sapiens)
# Construct: expressed in transfected cells
# Sequence (P48764 26-834): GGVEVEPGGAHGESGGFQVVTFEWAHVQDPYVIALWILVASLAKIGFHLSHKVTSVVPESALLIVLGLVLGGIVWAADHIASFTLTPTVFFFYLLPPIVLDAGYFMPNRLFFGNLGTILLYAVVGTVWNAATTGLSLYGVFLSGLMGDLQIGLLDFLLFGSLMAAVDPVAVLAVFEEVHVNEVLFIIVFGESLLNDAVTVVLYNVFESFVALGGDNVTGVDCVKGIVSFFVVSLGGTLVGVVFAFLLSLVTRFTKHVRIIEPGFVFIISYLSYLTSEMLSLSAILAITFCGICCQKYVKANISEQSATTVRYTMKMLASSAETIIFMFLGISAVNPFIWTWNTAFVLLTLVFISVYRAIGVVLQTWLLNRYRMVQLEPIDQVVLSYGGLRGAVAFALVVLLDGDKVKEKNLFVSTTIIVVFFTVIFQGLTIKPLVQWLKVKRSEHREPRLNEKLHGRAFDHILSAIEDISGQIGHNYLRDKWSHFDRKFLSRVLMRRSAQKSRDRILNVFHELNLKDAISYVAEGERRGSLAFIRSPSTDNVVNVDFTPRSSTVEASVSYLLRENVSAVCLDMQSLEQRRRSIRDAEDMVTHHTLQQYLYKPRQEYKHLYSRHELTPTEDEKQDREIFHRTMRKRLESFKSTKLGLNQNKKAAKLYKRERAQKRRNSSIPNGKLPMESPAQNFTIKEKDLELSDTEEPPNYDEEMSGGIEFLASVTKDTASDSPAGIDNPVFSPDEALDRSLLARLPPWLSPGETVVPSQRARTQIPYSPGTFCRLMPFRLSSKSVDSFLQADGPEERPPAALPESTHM
# Sequence (Q99653 2-195 partner limits assumed): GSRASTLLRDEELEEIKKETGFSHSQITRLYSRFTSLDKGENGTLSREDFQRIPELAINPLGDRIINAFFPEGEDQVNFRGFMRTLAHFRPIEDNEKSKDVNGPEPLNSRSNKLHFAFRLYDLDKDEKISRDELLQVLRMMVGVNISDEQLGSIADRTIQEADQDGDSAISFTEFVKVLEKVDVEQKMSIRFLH
# Method notes: Cell-based assay of NHE-3 activity (persistent inhibition), human
# Condition notes: human Persistence, 60 min incubation then washout
# Method: The ability of compounds to inhibit human and rat NHE-3-mediated Na^+ dependent H^+ antiport after application and washout was measured using a modification of the pH sensitive dye method described above. PS120 fibroblasts stably expressing human NHE3 and NHERF2 were obtained from Mark Donowitz (Baltimore, Md.). […] Changes in intracellular pH were monitored using a FLIPR Tetra® (Molecular Devices, Sunnyvale, Calif.) by excitation at λex 439 to 505 nm, and measuring BCECF fluorescence at λem 538 nm. […]
Structures can show the parent of a compound that is named as a salt.

>  <Molecule>
Cc1cc(S(=O)(=O)NCCOCCOCCNC(=O)NCCCCNC(=O)NCCOCCOCCNS(=O)(=O)c2ccc(O[C@H]3c4cc(Cl)cc(C)c4C[C@@H]3N(C)C)c(C)c2)ccc1O[C@H]1c2cc(Cl)cc(C)c2C[C@@H]1N(C)C [Example 17]

>  <Subject of test>
NHE3 (Homo sapiens)

>  <pIC50>
C (NHE3 pIC50 > 7)

$$$$
>  <Molecule>
Cc1cc(S(=O)(=O)NCCOCCOCCNC(=O)NCCCCNC(=O)NCCOCCOCCNS(=O)(=O)c2cc(C)c(O[C@H]3c4cc(Cl)cc(Cl)c4C[C@@H]3N(C)C)c(F)c2)cc(F)c1O[C@H]1c2cc(Cl)cc(Cl)c2C[C@@H]1N(C)C [Example 84]

>  <Subject of test>
NHE3 (Homo sapiens)

>  <pIC50>
C (NHE3 pIC50 > 7)

$$$$
>  <Molecule>
N#Cc1cc(Cl)cc2c1C[C@H](N1CCNCC1)[C@H]2Oc1ccc(S(=O)(=O)NC2CCN(C(=O)CCCNC(=O)NCCCC(=O)N3CCC(NS(=O)(=O)c4ccc(O[C@H]5c6cc(Cl)cc(C#N)c6C[C@@H]5N5CCNCC5)cc4)CC3)CC2)cc1 [Example 154]

>  <Subject of test>
NHE3 (Homo sapiens)

>  <pIC50>
C (NHE3 pIC50 > 7)

$$$$
>  <Molecule>
Cc1cc(S(=O)(=O)N[C@H]2CCN(CCOCCNC(=O)NCCCCNC(=O)NCCOCCN3CC[C@H](NS(=O)(=O)c4ccc(O[C@H]5c6cc(Cl)cc(Cl)c6C[C@@H]5N(C)C)c(C)c4)C3)C2)ccc1O[C@H]1c2cc(Cl)cc(Cl)c2C[C@@H]1N(C)C [Example 52]

>  <Subject of test>
NHE3 (Homo sapiens)

>  <pIC50>
C (NHE3 pIC50 > 7)

$$$$
>  <Molecule>
CC(C)[C@@H](COCCOCCNC(=O)NCCCCNC(=O)NCCOCCOC[C@@H](NS(=O)(=O)c1ccc(O[C@H]2c3cc(Cl)cc(Cl)c3C[C@@H]2N2CCC[C@@H](N)C2)cc1)C(C)C)NS(=O)(=O)c1ccc(O[C@H]2c3cc(Cl)cc(Cl)c3C[C@@H]2N2CCC[C@@H](N)C2)cc1 [Example 98, dihydrochloride]

>  <Subject of test>
NHE3 (Homo sapiens)

>  <pIC50>
C (NHE3 pIC50 > 7)

$$$$

Data provenance is patent US11242337B2.
